Origin of the recorded values: paper PMC4335062

Molecular target: XBP1 (Homo sapiens, UniProt P17861)
Construct: made in house
Sequence (P17861 70-133 limits assumed): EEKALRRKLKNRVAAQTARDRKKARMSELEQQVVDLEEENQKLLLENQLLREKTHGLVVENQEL
Assay: Direct-binding FRET assay
Settings: 23°C; N-terminal rhodamine design; mean or single; read-out: Kd
pKd: −log10 of the molar value. Where no end group is shown, it is not given here.
property-label: pKd

>>> df
                                   sequence  value_reported
0  NQIKTLRTRLSKLRKDNLQLEKDIANLERKAKDLRAEKEQLEYEL [ATF4-d1]          < 6.00
1  KRIAYLRQRIAELRNENHVLESRIQRMEKEKDALQQDRDHLEYEL [ATF5-d1]          < 5.30

###

Target: ATF6B (Homo sapiens, UniProt Q99941)
Sequence (Q99941 325-388 limits assumed): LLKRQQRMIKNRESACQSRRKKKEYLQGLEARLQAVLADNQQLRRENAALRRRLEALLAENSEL
Assay: Direct-binding FRET assay
Design: made in house
Details: 37°C; C-terminal rhodamine design; mean or single; read-out: Kd
Where no end group is shown, it is not given here.
property-label: Kd

>>> df
                                   sequence  value_reported
0  EREAQLENRVAHLKEKNQELKAQNLHLKEALSEAQNRNQELKNDA [XBP1-d1]       > 1000 nM

###

Biological target: JUN/FOS heterodimer (Homo sapiens, UniProt P05412)
Construct: made in house
Experiment: Competition FRET assay
Assay type: binding
Where no end group is shown, it is not given here.
property-label: IC50

>>> print(df.to_string())
                                   sequence  property_label  value_reported
0  SIAATLEKEEANLEKMNKKLAAEIESLLKEKDKLESVLNYHE [JUN-d1]            IC50          245 nM

###

Collected Kd values appear next to each entry.
Biological target: NFE2 (Homo sapiens, UniProt Q16621)
Construct: made in house
Sequence (Q16621 266-329 limits assumed): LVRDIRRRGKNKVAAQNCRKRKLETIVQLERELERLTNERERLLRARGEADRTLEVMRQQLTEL
Experiment: Direct-binding FRET assay
Details: 4°C; N-terminal rhodamine design; mean or single; read-out: Kd
Where no end group is shown, it is not given here.
property-label: Kd

>>> df
                                   sequence  property_label  value_reported
0  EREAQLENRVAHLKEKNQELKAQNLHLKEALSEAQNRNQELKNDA [XBP1-d1]              Kd          > 1 µM
1  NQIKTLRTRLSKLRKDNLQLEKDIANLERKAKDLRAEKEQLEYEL [ATF4-d1]              Kd          > 5 µM
2  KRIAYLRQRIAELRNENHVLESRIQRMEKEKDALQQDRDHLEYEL [ATF5-d1]              Kd          > 5 µM

###

Collected pKd values appear next to each entry.
Biological target: BACH2 (Homo sapiens)
Sequence (Q9BYV9 646-709 limits assumed): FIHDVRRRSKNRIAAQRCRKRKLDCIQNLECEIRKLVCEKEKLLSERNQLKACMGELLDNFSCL
Experiment: Direct-binding FRET assay
Set-up: made in house
Conditions: 23°C; N-terminal rhodamine design; mean or single; read-out: Kd
Method: The direct binding assay was performed manually in 384-well plates and is similar to a previously described assay. Wells were filled with 20 μL of 1 mM TCEP-HCl. […] Briefly, the Kd of the designed peptide homodimer was experimentally determined and used with previously determined target homodimer Kd values to determine the heterodimer Kd. […] A minimum 15% change in the donor fluorescence upon titrating the acceptor peptide from 0 to 1000 nM was required for a fit to be attempted. […]
pKd: −log10 of the molar value. Where no end group is shown, it is not given here.
property-label: pKd

                                   sequence  property_label  value_reported
0  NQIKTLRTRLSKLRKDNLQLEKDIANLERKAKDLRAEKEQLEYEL [ATF4-d1]             pKd          < 5.30
1  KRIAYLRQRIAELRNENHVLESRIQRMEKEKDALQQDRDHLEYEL [ATF5-d1]             pKd          < 5.30
2  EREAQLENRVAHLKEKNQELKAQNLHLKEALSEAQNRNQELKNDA [XBP1-d1]             pKd          < 6.00
